# credit: patent US12662479B2

- Experimental Target: HiBit-BRG1 fusion protein (Homo sapiens, UniProt P51532)
- Construct: expressed in transfected cells
- Sequence (P51532 whole entry, the tested form may be a part): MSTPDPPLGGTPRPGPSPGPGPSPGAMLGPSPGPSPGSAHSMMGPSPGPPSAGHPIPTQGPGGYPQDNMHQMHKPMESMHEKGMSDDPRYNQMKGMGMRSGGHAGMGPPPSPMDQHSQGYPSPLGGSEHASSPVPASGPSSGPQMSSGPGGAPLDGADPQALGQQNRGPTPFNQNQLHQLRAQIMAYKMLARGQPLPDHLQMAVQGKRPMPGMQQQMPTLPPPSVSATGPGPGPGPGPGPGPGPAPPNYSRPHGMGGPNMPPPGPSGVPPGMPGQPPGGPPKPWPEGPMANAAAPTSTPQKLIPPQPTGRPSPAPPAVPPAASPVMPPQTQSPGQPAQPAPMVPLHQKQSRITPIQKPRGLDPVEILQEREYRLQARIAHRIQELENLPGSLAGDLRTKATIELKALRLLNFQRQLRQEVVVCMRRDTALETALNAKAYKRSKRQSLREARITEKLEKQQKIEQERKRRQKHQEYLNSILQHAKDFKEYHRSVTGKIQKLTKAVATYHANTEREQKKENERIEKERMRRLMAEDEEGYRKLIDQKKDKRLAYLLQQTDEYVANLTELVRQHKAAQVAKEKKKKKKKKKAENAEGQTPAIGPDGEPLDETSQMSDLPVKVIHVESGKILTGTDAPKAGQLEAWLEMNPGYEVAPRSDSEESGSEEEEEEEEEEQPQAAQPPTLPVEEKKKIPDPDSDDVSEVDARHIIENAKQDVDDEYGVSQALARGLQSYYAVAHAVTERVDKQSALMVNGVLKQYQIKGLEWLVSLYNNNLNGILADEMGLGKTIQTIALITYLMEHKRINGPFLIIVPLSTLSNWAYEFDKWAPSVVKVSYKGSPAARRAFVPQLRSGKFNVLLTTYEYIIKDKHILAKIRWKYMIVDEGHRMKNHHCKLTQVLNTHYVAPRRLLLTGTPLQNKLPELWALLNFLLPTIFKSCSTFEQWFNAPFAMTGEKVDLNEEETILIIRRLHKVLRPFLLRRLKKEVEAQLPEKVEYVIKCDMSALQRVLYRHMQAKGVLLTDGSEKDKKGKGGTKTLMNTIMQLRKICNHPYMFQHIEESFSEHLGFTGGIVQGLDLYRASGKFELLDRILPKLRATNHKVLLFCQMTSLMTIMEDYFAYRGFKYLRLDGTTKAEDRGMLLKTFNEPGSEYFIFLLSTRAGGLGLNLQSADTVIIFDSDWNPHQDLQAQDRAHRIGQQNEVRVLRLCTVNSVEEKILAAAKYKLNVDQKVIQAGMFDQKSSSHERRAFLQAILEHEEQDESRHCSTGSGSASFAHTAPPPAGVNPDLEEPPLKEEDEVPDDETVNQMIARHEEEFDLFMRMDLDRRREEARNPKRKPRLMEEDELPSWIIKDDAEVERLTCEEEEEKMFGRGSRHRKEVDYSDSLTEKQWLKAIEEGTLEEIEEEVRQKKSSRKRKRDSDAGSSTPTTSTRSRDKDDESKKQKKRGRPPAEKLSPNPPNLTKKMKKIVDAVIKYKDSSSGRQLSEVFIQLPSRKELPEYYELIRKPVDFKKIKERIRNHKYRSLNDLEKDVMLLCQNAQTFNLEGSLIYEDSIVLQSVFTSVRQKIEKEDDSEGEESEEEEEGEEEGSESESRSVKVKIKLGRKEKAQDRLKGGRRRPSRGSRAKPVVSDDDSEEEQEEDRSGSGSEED
- Experiment Notes: HiBiT-BRG1 cell-based degradation assay (Nano-Glo HiBiT Lytic Detection, 24 h)
- Measurement Parameters: HeLa cells expressing HiBit-BRG1 and LgBit, read-out: BRG1 HiBit Degradation IC50
Reported Endpoint: DC50

Req: Name the recorded DC50 for Cc1c(C(=O)NCC(=O)Nc2nc(-c3cccc(-c4ccnc(N(C)CC(=O)N5CCC(C6CCN(C(=O)COc7cccc8c7C(=O)N(C7CCC(=O)NC7=O)C8=O)CC6)CC5)c4)c3)cs2)cn(S(C)(=O)=O)c1C (stereo not shown) .
Resp: > 10 µM

Req: Proceed to CS(=O)(=O)n1ccc(C(=O)NCC(=O)Nc2nc(-c3cccc(-c4ccnc(C5(C(=O)N6CC(COc7cccc8c7C(=O)N(C7CCC(=O)NC7=O)C8=O)C6)CC5)c4)c3)cs2)c1 (stereo not shown)
Resp: > 10 µM

Req: Moving on to the next compound: Cc1ncsc1-c1ccc(CNC(=O)[C@@H]2C[C@@H](O)CN2C(=O)[C@@H](NC(=O)C2CC3(CC(C(=O)NCc4cccc(-c5cccc(-c6csc(NC(=O)CNC(=O)c7ccn(S(C)(=O)=O)c7)n6)c5)c4)C3)C2)C(C)(C)C)cc1 (stereo partly shown)
Resp: > 10 µM

Req: Next record, please: CS(=O)(=O)n1ccc(C(=O)N[C@@H](COCc2ccc(CNC(=O)CCN3CCN(c4ccc5c(c4)C(=O)N(C4CCC(=O)NC4=O)C5=O)CC3)cc2)C(=O)Nc2nc(-c3ccccc3)cs2)c1 (stereo partly shown)
Resp: 0.1 to 1 µM

====

- Experimental Target: HiBit-BRM fusion protein (Homo sapiens)
- Construct: expressed in transfected cells
- Sequence (P51531 whole entry, the tested form may be a part): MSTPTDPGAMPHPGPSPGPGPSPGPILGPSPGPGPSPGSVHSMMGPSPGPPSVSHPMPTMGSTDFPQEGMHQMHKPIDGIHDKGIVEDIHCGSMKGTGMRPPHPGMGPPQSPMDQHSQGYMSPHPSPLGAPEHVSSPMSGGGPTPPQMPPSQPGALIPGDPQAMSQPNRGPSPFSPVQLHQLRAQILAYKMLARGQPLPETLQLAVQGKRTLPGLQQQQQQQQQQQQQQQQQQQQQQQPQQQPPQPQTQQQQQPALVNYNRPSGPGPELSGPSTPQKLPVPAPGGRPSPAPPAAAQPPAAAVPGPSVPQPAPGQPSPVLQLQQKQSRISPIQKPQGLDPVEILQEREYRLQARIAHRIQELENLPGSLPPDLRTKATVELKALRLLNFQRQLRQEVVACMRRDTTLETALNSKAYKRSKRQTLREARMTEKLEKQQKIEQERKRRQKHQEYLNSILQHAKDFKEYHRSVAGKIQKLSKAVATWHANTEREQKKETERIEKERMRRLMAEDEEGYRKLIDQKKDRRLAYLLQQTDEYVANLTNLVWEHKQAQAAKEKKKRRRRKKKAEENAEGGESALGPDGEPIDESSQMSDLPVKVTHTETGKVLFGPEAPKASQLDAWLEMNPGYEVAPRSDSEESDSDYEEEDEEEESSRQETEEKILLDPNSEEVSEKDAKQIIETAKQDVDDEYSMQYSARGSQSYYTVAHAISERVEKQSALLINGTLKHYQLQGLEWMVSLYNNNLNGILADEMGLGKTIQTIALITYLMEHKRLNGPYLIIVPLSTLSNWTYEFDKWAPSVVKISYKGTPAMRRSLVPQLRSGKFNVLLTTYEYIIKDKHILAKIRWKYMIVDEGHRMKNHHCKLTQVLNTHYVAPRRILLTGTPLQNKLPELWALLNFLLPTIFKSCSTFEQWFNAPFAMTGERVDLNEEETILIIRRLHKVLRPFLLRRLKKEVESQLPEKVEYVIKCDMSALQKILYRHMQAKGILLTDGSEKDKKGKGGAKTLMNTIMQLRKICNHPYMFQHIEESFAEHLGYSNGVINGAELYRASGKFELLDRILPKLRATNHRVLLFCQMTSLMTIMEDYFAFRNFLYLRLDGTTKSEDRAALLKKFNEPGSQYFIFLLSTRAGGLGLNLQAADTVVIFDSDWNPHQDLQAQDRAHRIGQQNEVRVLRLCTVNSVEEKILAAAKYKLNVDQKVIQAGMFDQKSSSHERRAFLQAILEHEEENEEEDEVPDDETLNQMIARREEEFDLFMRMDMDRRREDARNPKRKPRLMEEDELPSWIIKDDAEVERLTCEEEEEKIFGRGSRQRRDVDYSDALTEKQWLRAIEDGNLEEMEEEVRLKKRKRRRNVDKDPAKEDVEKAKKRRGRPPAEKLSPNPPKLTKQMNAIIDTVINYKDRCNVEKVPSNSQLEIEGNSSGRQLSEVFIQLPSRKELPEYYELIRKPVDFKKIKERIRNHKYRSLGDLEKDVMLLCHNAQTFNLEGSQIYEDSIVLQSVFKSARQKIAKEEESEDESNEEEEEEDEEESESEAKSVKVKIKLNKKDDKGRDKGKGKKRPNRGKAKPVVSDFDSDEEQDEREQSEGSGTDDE
- Experiment Notes: HiBiT-BRM cell-based degradation assay (Nano-Glo HiBiT Lytic Detection, 24 h)
- Measurement Parameters: HeLa cells expressing HiBiT-BRM, read-out: BRM HiBit Degradation IC50
Counter-ions that a name gives are not always drawn.
Reported Endpoint: DC50

Req: I have this compound here, CS(=O)(=O)n1ccc(C(=O)NCC(=O)Nc2nc(-c3cccc(-c4ccnc(C5(C(=O)NC6CCN(CCOc7ccc8c(c7)C(=O)N(C7CCC(=O)NC7=O)C8=O)CC6)CC5)c4)c3)cs2)c1 (stereo not drawn) [Compound 113] , and I need its recorded DC50.
Resp: < 0.1 µM

Req: Another: CC(C)(C(=O)NCCCCCNc1cccc2c1C(=O)N(C1CCC(=O)NC1=O)C2=O)n1ccc(-c2cccc(-c3csc(NC(=O)CNC(=O)c4ccn(S(C)(=O)=O)c4)n3)c2)n1 (stereo not drawn) [Compound 7]
Resp: > 10 µM

Req: Same lookup for Cc1ncsc1-c1ccc(CNC(=O)[C@@H]2C[C@@H](O)CN2C(=O)[C@@H](NC(=O)CCCCCCCCCCCCC(=O)NCCCC[C@H](NC(=O)c2ccn(S(C)(=O)=O)c2)C(=O)Nc2nc(-c3ccccc3)cs2)C(C)(C)C)cc1 [Compound 267] , please.
Resp: > 10 µM

Req: And then CS(=O)(=O)n1ccc(C(=O)N[C@@H](CCOCCCC(=O)NCCCCCNc2ccc3c(c2)C(=O)N(C2CCC(=O)NC2=O)C3=O)C(=O)Nc2nc(-c3ccccc3)cs2)c1 (stereo partly drawn) [Compound 287] , what is it?
Resp: > 10 µM

Req: What do you get for CS(=O)(=O)n1ccc(C(=O)N[C@@H](CCOCCCC(=O)NCCCCNc2ccc3c(c2)C(=O)N(C2CCC(=O)NC2=O)C3=O)C(=O)Nc2nc(-c3ccccc3)cs2)c1 (stereo partly drawn) [Compound 282] ?
Resp: > 10 µM

Req: Consider next the compound CS(=O)(=O)n1ccc(C(=O)N[C@@H](CCOCCCC(=O)N2CCN(CCOc3ccc4c(c3)C(=O)N(C3CCC(=O)NC3=O)C4=O)CC2)C(=O)Nc2nc(-c3ccccc3)cs2)c1 (stereo partly drawn) [Compound 219] in the same way.
Resp: > 10 µM

Req: Would you kindly repeat that for CS(=O)(=O)n1ccc(C(=O)N[C@@H](CCOCCCC(=O)N2CCC(CN3CCN(c4ccc5c(c4)C(=O)N(C4CCC(=O)NC4=O)C5=O)CC3)CC2)C(=O)Nc2nc(-c3ccccc3)cs2)c1 (stereo partly drawn) [Compound 220, formate] ?
Resp: > 10 µM

Req: Follow-up entry: Cc1ncsc1-c1ccc(CNC(=O)[C@@H]2C[C@@H](O)CN2C(=O)[C@@H](NC(=O)COCCOCCOCCNC(=O)C2(c3cc(-c4cccc(-c5csc(NC(=O)CNC(=O)c6ccn(S(C)(=O)=O)c6)n5)c4)ccn3)CC2)C(C)(C)C)cc1 [Compound 110]
Resp: 0.1 to 1 µM

Req: Same lookup for Cc1ncsc1-c1ccc(CNC(=O)[C@@H]2C[C@@H](O)CN2C(=O)[C@@H](NC(=O)CCCC(=O)N2CCN(c3cc(-c4cccc(-c5csc(NC(=O)CNC(=O)c6ccn(S(C)(=O)=O)c6)n5)c4)ccn3)CC2)C(C)(C)C)cc1 [Compound 79] , please.
Resp: > 10 µM
